system: FAB9; test: qHTS profiling for inhibitors of Plasmodium falciparum proliferation (AID 504749); further: nearly all actives have a fitted effect of over 60% in size; details: P. falciparum in erythrocytes, SYBR Green DNA, 72 h; series mostly up to 28.7 µM
Results filed as inconclusive are left out. The source made the active and inactive calls. The call rests on the fitted dose curve; in most records, active means well fitted inhibition curve with a large enough effect; inconclusive means small, poorly fitted or top-dose-only effect; inactive means flat fitted curve, though single readings scatter.
Allowed answers: t (active), f (inactive)

Query string: For `CCOP(=S)(OCC)Oc1cc(C)nc(C(C)C)n1` , which call appears in the assay record?
Result string: f

---

Tested on: ICS
Test: qHTS profiling for inhibitors of Plasmodium falciparum proliferation (AID 504749); further: nearly all actives have a fitted effect of over 60% in size; further: potency means the concentration at half of the fitted maximal effect
Settings: P. falciparum in erythrocytes, SYBR Green DNA, 72 h; series mostly up to 28.7 µM
Description: NIH National Institute of Allergy and Infectious Diseases [NIAID] NIH Chemical Genomics Center [NCGC] […] Because mature erythrocytes lack DNA, only Plasmodium-derived DNA is detected. NCGC Assay Protocol Summary: The SYBR Green viability assay was adapted from a method described previously (Plouffe et al., 2008). […] The following morning, fluorescence intensity at 485(14) nm excitation and 535(25) nm emission wavelengths was measured on an EnVision (Perkin Elmer) plate reader. […]
Records with an inconclusive call do not appear. The source made the active and inactive calls. Calls follow the shape of the dose curve; as a rule, active = well fitted inhibition curve with a large enough effect; inconclusive = small, poorly fitted or top-dose-only effect; inactive = flat fitted curve, though single readings scatter.
Measured Attribute: Potency

// known answers, use as guide
- Molecule: "CC(=O)[C@H]1CC[C@H]2[C@@H]3CC[C@H]4C[C@](C)(O)CC[C@]4(C)[C@H]3CC[C@]12C"
  Result Value: "inactive"
- Molecule: "NN=C(N)N"
  Result Value: "inactive"
- Molecule: "NCCc1cc(O)c(O)cc1O"
  Result Value: "inactive"
- Molecule: "CN1C[C@H](CNC(=O)OCc2ccccc2)C[C@@H]2c3cccc4c3c(cn4C)C[C@H]21"
  Result Value: "7.08 µM (active)"
- Molecule: "CCC(COC(=O)c1cc(OC)c(OC)c(OC)c1)(c1ccccc1)N(C)C (configuration not stated)"
  Result Value: "inactive"
- Molecule: "CCCC(C)(COC(N)=O)COC(=O)NC(C)C (configuration not stated)"
  Result Value: "inactive"
- Molecule: "Cc1ccc(S(=O)(=O)N[C@@H](CCCCN)C(=O)CCl)cc1"
  Result Value: "12.6 µM (active)"
- Molecule: "CCCC1CCCCN1 (configuration not stated)"
  Result Value: "inactive"

Query string: Quick one: Potency of `NP(N)(=O)NC(=O)c1ccc(F)cc1` ?
Result string: inactive

Query string: Quick one: Potency of `CCN(CC)CCOC(=O)C(O)(c1ccccc1)c1ccccc1` ?
Result string: inactive

Query string: Quick one: Potency of `C=C1CC[C@@]2(O)[C@H]3Cc4ccc(O)c5c4[C@@]2(CCN3CC2CC2)[C@H]1O5` ?
Result string: inactive

Query string: Quick one: Potency of `NCC1(CC(=O)O)CCCCC1` ?
Result string: inactive
